- particulars: in n-butanol, 323.15 K
endpoint_name: solubility (mole fraction)
# answer = number (no unit)

Given the compound "O=C(O)c1cc([N+](=O)[O-])cc([N+](=O)[O-])c1" , write its reported solubility (mole fraction).
0.0622

###

- particulars: in n-butyl acetate, 313.15 K
endpoint_name: solubility (mole fraction)
# answer = number (no unit)

Given the compound "O=C(O)c1cc([N+](=O)[O-])cc([N+](=O)[O-])c1" , write its reported solubility (mole fraction).
0.0451

###

- particulars: in ethyl acetate, 288.15 K
endpoint_name: solubility (mole fraction)

Given the compound "O=C(O)c1cc([N+](=O)[O-])cc([N+](=O)[O-])c1" , write its reported solubility (mole fraction).
0.0373

###

- particulars: in ethanol, 288.15 K
endpoint_name: solubility (mole fraction)
# answer = number (no unit)

Given the compound "O=C(O)c1cc([N+](=O)[O-])cc([N+](=O)[O-])c1" , write its reported solubility (mole fraction).
0.0306

###

- particulars: in methanol, 318.15 K
endpoint_name: solubility (mole fraction)
# answer = number (no unit)

Given the compound "O=C(O)c1cc([N+](=O)[O-])cc([N+](=O)[O-])c1" , write its reported solubility (mole fraction).
0.0843

###

- particulars: in isopropanol, 283.15 K
endpoint_name: solubility (mole fraction)
# answer = number (no unit)

Given the compound "O=C(O)c1cc([N+](=O)[O-])cc([N+](=O)[O-])c1" , write its reported solubility (mole fraction).
0.014

###

- particulars: in n-propanol, 313.15 K
endpoint_name: solubility (mole fraction)
# answer = number (no unit)

Given the compound "O=C(O)c1cc([N+](=O)[O-])cc([N+](=O)[O-])c1" , write its reported solubility (mole fraction).
0.0457

###

- particulars: in n-butyl acetate, 288.15 K
endpoint_name: solubility (mole fraction)
# answer = number (no unit)

Given the compound "O=C(O)c1cc([N+](=O)[O-])cc([N+](=O)[O-])c1" , write its reported solubility (mole fraction).
0.0262

###

- particulars: in ethanol, 298.15 K
endpoint_name: solubility (mole fraction)
# answer = number (no unit)

Given the compound "O=C(O)c1cc([N+](=O)[O-])cc([N+](=O)[O-])c1" , write its reported solubility (mole fraction).
0.0396

###

- particulars: in sec-butanol, 303.15 K
endpoint_name: solubility (mole fraction)
# answer = number (no unit)

Given the compound "O=C(O)c1cc([N+](=O)[O-])cc([N+](=O)[O-])c1" , write its reported solubility (mole fraction).
0.0324

###

- particulars: in sec-butanol, 318.15 K
endpoint_name: solubility (mole fraction)
# answer = number (no unit)

Given the compound "O=C(O)c1cc([N+](=O)[O-])cc([N+](=O)[O-])c1" , write its reported solubility (mole fraction).
0.0628

###

- particulars: in ethanol, 323.15 K
endpoint_name: solubility (mole fraction)
# answer = number (no unit)

Given the compound "O=C(O)c1cc([N+](=O)[O-])cc([N+](=O)[O-])c1" , write its reported solubility (mole fraction).
0.078

###

- particulars: in ethyl acetate, 303.15 K
endpoint_name: solubility (mole fraction)
# answer = number (no unit)

Given the molecule "O=C(O)c1cc([N+](=O)[O-])cc([N+](=O)[O-])c1" , write its reported solubility (mole fraction).
0.0458
